Molecular target: PhyscoPII
Assay: ITC binding of small effector molecules to plant-moss PhyscoPII
Parameters: species or system Physcomitrella patens
Conditions: in presence 2-OG, read-out: Average Kd (one-site binding model)
measurement label: Kd (µM)
Give the value, in units of µM, as a plain number.

With PhyscoPII as the test system, provide measured Kd for this molecule: Nc1ncnc2c1ncn2[C@@H]1O[C@H](COP(=O)(O)OP(=O)(O)OP(=O)(O)O)[C@@H](O)[C@H]1O
17.6

----------
Target: SyPII (Synechococcus elongatus, UniProt P0A3F4)
Construct: Strep-tag; made in house
Sequence (P0A3F4 whole entry): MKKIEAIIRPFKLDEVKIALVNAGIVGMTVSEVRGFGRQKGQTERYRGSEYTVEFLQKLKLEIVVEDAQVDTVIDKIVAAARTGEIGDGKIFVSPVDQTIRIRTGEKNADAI
Experiment: ITC binding of small effector molecules to cyanobacterial SyPII
Design: species or system Synechococcus elongatus PCC 7942
Conditions: in presence 2-OG (1 mM), read-out: Kd1 (three-sites binding model)
measurement label: Kd (nM)
Give the value, in units of nM, as a plain number.

With SyPII (Synechococcus elongatus, UniProt P0A3F4) as the test system, provide measured Kd for this compound: Nc1ncnc2c1ncn2[C@@H]1O[C@H](COP(=O)(O)OP(=O)(O)OP(=O)(O)O)[C@@H](O)[C@H]1O
500

----------
Target: PhyscoPII
Assay: ITC binding of small effector molecules to plant-moss PhyscoPII
Design: species or system Physcomitrella patens
Details: in presence 2-OG, read-out: Kd2 (three-sites binding model)
measurement label: pKd
Quick note: pKd values are minus log10 of concentrations in mol/L.

Using the record for Nc1ncnc2c1ncn2[C@@H]1O[C@H](COP(=O)(O)OP(=O)(O)OP(=O)(O)O)[C@@H](O)[C@H]1O [ATP] , state its measured pKd.
4.79

----------
Biological target: CrPII
Experiment: ITC binding of small effector molecules to green algal CrPII
Parameters: species or system Chlamydomonas reinhardtii
Details: in presence ATP (2 mM), read-out: Kd3 (three-sites binding model)
measurement label: Kd (µM)
Give the value, in units of µM, as a plain number.

With CrPII as the test system, provide measured Kd for this compound: O=C(O)CCC(=O)C(=O)O [2-OG, 2-oxoglutarate]
45.5

----------
Biological target: CrPII
Experiment: ITC binding of small effector molecules to green algal CrPII
Design: species or system Chlamydomonas reinhardtii
Settings: in presence ATP (2 mM), read-out: Kd1 (three-sites binding model)
measurement label: pKd
Quick note: pKd values are minus log10 of concentrations in mol/L.

Using the record for O=C(O)CCC(=O)C(=O)O [2-OG, 2-oxoglutarate] , state its measured pKd.
5.38

----------
Molecular target: SyPII (Synechococcus elongatus)
Construct: Strep-tag; made in house
Test: ITC binding of small effector molecules to cyanobacterial SyPII
Design: species or system Synechococcus elongatus PCC 7942
Details: titrant alone, read-out: Kd1 (three-sites binding model)
measurement label: pKd
Quick note: pKd values are minus log10 of concentrations in mol/L.

Using the record for Nc1ncnc2c1ncn2[C@@H]1O[C@H](COP(=O)(O)OP(=O)(O)OP(=O)(O)O)[C@@H](O)[C@H]1O [ATP] , state its measured pKd.
5.12

----------
Target: PpPII (Porphyra purpurea, UniProt P51254)
Sequence (P51254 whole entry): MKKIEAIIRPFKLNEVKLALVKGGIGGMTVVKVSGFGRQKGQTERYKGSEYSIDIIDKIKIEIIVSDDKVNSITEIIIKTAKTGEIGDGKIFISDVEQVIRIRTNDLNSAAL
Assay: ITC binding of small effector molecules to red algal PpPII
Conditions: titrant alone, read-out: Kd1 (three-sites binding model)
measurement label: Kd (µM)
Give the value, in units of µM, as a plain number.

Using the record for Nc1ncnc2c1ncn2[C@@H]1O[C@H](COP(=O)(O)OP(=O)(O)O)[C@@H](O)[C@H]1O [ADP] , state its measured Kd.
3.4
